Assay: chemical genetic growth profiling, strain panel (AID 1159580);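 further: tested at 20 µM; growth read once vehicle control cultures reached saturation at 30 °C; lower values mean less growth of the strain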
Settings: S. cerevisiae deletion strains, growth OD, locus YLR039C, strain RIC1
Hit rate of the full screen: of about 5,500 compounds, about 2,000 (36%) were called active. Another 18% or so got no clear call; they are omitted. No stated cut-off is given here; in the data, active means normalized growth mostly below about 0.91 (no sharp cut-off); inconclusive means no clear call, values can overlap the other calls; inactive means mostly above about 0.92. Some of the results follow.
The categories you may choose from are t = active, f = inactive

## Task Outcome? C[N+](C)(C)CC(=O)[O-]
## Result f

## Task Outcome? CC(C)(C)NC(=O)N1CCN(c2nc3ccc(Cl)cc3s2)CC1
## Result f

## Task Outcome? CCCCOc1ccc(C(=O)CCN2CCCCC2)cc1
## Result t

## Task Outcome? COc1ccc2c(c1)OC[C@@H](Cc1ccc(OC)c(OC)c1)[C@@H]2O
## Result f

Others:
## Task Outcome? CCOC(=O)/C=C(\C)OP(=O)(OC)OC
## Result f

## Task Outcome? OC(CCN1CCCCC1)(c1ccccc1)c1ccccc1
## Result f

## Task Outcome? COc1ccc2c(c1)OC[C@@H](Cc1ccc(OC)c(OC)c1)[C@H]2O
## Result t

## Task Outcome? CCCC(C)(SCC(=O)O)SCC(=O)O
## Result f

## Task Outcome? CC[C@@H](CO)NCCN[C@@H](CC)CO
## Result f

## Task Outcome? Nc1cc(-c2ccc(Cl)cc2)nc(N)n1
## Result f

## Task Outcome? Cc1ccc2cc(C)c(C)cc2c1
## Result f

## Task Outcome? CCc1ccc(CCOc2ccc(CC3SC(=O)NC3=O)cc2)nc1 (centres undefined)
## Result f

## Task Outcome? C=CCc1ccc2c(c1)OCO2
## Result f

## Task Outcome? COc1c2c(c(CC=C(C)C)c3oc(=O)c(-c4ccc(O)cc4)c(O)c13)OC(C)(C)C=C2
## Result t

## Task Outcome? CCC1(c2ccc(N)cc2)CCC(=O)NC1=O (centres undefined)
## Result f

## Task Outcome? CCOC(=O)COc1ccc2c(c1)OC(C)(C)CC2=O
## Result f

## Task Outcome? CC1(C)S[C@@H]2[C@H](NC(=O)[C@H](NC(=O)N3CCNC3=O)c3ccccc3)C(=O)N2C1C(=O)O (some centres undefined)
## Result f

## Task Outcome? COc1cc(OC)c2c(c1)O[C@H](c1ccc(OC)c(OC)c1)[C@@H](O)C2
## Result f

## Task Outcome? CCC1(C)CC(=O)NC1=O (centres undefined)
## Result f

## Task Outcome? Cc1ccc(C(=O)C(C)CN2CCCCC2)cc1 (centres undefined)
## Result f

## Task Outcome? N#Cc1cnn(-c2ccccc2)c1-n1cccc1
## Result f

## Task Outcome? O=[N+]([O-])c1cc(C(F)(F)F)ccc1N1CCN(CCO)CC1
## Result f

## Task Outcome? C=CC1=C(C(=O)O)N2C(=O)[C@@H](NC(=O)/C(=N/O)c3csc(N)n3)[C@H]2SC1
## Result f

## Task Outcome? COc1c(CC=C(C)C)c2c(c3oc(=O)c(-c4ccc(O)cc4)c(O)c13)C=CC(C)(C)O2
## Result f

## Task Outcome? CN(C)/C=C1\C(=O)c2ccccc2N(C)S1(=O)=O
## Result f

## Task Outcome? O=C(c1ccccc1)C1CCN(c2ccc(C(F)(F)F)cc2[N+](=O)[O-])CC1
## Result f

## Task Outcome? CCCCOc1cc(C(=O)O)ccc1OC
## Result f

## Task Outcome? CN1C/C(=C\c2ccccc2Cl)C(=O)/C(=C/c2ccccc2Cl)C1
## Result t

## Task Outcome? NC(N)=NOCC[C@H](N)C(=O)O
## Result f
